assayed-system: 6His-Tev-LRRK2 (1326-2527) (Homo sapiens)
Construct: A LRRK2 cDNA encoding residues 1326-2527 was received from Dundee University; made in house; host or cells: Spodoptera frugiperda (Sf9) insect cells, baculovirus (pFB-HTb)
Sequence (Q5S007 1326-2527): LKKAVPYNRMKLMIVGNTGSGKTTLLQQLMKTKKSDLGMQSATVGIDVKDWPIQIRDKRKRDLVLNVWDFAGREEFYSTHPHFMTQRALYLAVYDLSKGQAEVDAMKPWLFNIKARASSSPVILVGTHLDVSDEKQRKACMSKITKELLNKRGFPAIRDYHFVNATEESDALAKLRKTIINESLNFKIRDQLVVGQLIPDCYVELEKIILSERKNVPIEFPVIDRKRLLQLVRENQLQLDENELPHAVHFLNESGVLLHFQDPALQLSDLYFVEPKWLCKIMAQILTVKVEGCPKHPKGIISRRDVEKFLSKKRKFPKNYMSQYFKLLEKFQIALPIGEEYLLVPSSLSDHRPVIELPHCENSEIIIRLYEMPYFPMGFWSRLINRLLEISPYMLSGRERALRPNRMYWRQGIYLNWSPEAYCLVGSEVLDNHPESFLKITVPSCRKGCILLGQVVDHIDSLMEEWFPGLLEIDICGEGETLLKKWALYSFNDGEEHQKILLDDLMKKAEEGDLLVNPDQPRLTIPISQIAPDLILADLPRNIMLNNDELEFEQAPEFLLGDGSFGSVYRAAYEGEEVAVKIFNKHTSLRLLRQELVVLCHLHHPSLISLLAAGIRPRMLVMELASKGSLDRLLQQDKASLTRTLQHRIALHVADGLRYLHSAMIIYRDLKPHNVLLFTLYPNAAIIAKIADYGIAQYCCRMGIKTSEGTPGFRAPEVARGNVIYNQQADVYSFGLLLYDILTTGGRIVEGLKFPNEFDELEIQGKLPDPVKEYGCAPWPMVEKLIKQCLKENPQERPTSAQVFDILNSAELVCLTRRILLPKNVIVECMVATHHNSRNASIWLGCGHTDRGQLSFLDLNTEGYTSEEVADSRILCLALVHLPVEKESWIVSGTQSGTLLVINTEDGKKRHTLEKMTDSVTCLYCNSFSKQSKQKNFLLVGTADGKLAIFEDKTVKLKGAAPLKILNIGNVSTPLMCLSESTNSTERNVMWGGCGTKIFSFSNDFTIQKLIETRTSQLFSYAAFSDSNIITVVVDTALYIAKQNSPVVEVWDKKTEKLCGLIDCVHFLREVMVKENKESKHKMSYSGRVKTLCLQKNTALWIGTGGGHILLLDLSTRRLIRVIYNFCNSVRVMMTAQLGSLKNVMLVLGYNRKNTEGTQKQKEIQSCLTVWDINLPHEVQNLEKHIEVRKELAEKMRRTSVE
assay-notes: LRRK2 AlphaScreen desensitised protein substrate assay
Format: biochemical
experimental-setup: mean pIC50 of multiple test results; stated as threshold; read-out: pIC50 in the LRRK2 alphascreen desensitised protein substrate assay (bounds) (converted)

{"columns": ["compound", "IC50"],
 "data": [
  ["Cc1cc(C(=O)Nc2cccnc2)c(OCc2ccccc2)cc1Br [Example 9]", "≤ 316 nM"],
  ["CN1CCN(C(=O)c2cc(OCc3ccccc3)c(C(=O)Nc3ccnnc3)cc2Cl)CC1 [Example 55]", "≤ 316 nM"],
  ["Cn1cc(-c2cc(C(=O)Nc3ccnnc3)c(OCc3ccccc3)cc2CN2CCOCC2)cn1 [Example 3]", "≤ 25100 nM"],
  ["Cn1cc(-c2cc(C(=O)Nc3cccc(Cl)c3)c(OCc3ccccc3)cc2CN2CCOCC2)cn1 [Example 49]", "> 25100 nM"],
  ["O=C(Nc1cccnc1)c1cc(C(F)(F)F)c(C(=O)N2CCOCC2)cc1OCc1ccccc1 [Example 37]", "≤ 25100 nM"],
  ["O=C(Nc1cccnc1)c1cc(C(F)(F)F)c(CN2CCCCC2)cc1OCc1ccccc1 [Example 35]", "≤ 25100 nM"],
  ["O=C(Nc1cccnc1)c1cc(Cl)c(C(=O)N2CCOCC2)cc1OCc1ccccc1 [Example 44]", "≤ 316 nM"],
  ["O=C(Nc1ccnnc1)c1cc(Br)c(CN2CCOCC2)cc1OCc1ccccc1 [Example 1]", "≤ 25100 nM"],
  ["Cn1cc(-c2cc(C(=O)Nc3cccc(Cl)c3)c(OCc3ccc(F)cc3)cc2C(=O)N2CCOCC2)cn1 [Example 48]", "≤ 316 nM"],
  ["O=C(Nc1cccnc1)c1cc(Br)c(CN2CCOCC2)cc1OCc1ccccc1 [Example 2]", "≤ 316 nM"],
  ["O=C(Nc1ccnnc1)c1cc(Cl)c(C(=O)N2CCOCC2)cc1OCc1ccccc1 [Example 46]", "≤ 25100 nM"],
  ["Cc1cc(C(=O)Nc2ccnnc2)c(OCc2ccccc2)cc1-c1cnn(C)c1 [Example 12]", "≤ 316 nM"],
  ["Cc1cc(C(=O)Nc2cccnc2)c(OCc2ccccc2)cc1-c1cnn(C)c1 [Example 11]", "≤ 316 nM"],
  ["Cn1cc(-c2cc(OCc3ccc(F)cc3)c(C(=O)Nc3cccnc3)cc2CN2CCOCC2)cn1 [Example 13]", "≤ 25100 nM"],
  ["Cc1cc(OCc2ccccc2)c(C(=O)Nc2ccnnc2)cc1Br [Example 5]", "≤ 316 nM"],
  ["Cn1cc(-c2cc(C(=O)Nc3cccc(F)c3)c(OCc3ccc(F)cc3)cc2C(=O)N2CCOCC2)cn1 [Example 47]", "≤ 316 nM"],
  ["O=C(Nc1ccnnc1)c1cc(C(F)(F)F)c(C(=O)N2CCOCC2)cc1OCc1ccccc1 [Example 38]", "≤ 25100 nM"]
]}
